Value source: ChEMBL document CHEMBL4831544

# assay-details: Cmax in mouse at 1 mg/kg, iv measured up to 24 hrs by LC-MS/MS analysis
# Type: ADME, organism-based
# Design: route intravenous, dose 1 mg/kg, time <=24
# conditions: in vivo
property: Cmax (ng/mL)
Answers are plain numbers, in ng/mL.

GET /value?item= `CCN(C(=O)C1CC1)c1cc(-c2ccc(N3CCN(CC4CC4)CC3)nc2C)cc(C(=O)NCc2c(C)cc(C)[nH]c2=O)c1C` &field=Cmax returns 1240

----------
# assay-details: Half life in rat at 1 mg/kg, iv
# Type: ADME, organism-based
# conditions: in vivo
property: half-life (h)
Answers are plain numbers, in h.

CCN(C(=O)C1CC1)c1cc(-c2ccc(CN3CCOCC3)cc2)cc(C(=O)NCc2c(C)cc(C)[nH]c2=O)c1C 0.8
CCN(C(=O)C1CC1)c1cc(-c2ccc(N3CCN(CC4CC4)CC3)nc2C)cc(C(=O)NCc2c(C)cc(C)[nH]c2=O)c1C 1.82

Parameters: items (list). Returns: half-life for each item.
1. CCN(C(=O)C1CC1)c1cc(-c2ccc(N3CCN(CC4CC4)CC3)nc2)cc(C(=O)NCc2c(C)cc(C)[nH]c2=O)c1C
2. CCN1CCN(c2ccc(-c3cc(C(=O)NCc4c(C)cc(C)[nH]c4=O)c(C)c(N(CC)C(=O)C4CC4)c3)cc2)CC1
3. CCN(C(=O)C1CCCC1)c1cc(-c2ccc(CN3CCOCC3)cc2)cc(C(=O)NCc2c(C)cc(C)[nH]c2=O)c1C

Resp:
1: 1.25; 2: 1.55; 3: 0.38

----------
# assay-details: Clearance in rat at 1 mg/kg, iv
# Format: ADME, organism-based
# conditions: in vivo
property: clearance (mL/min/kg)
One number for each entry, in mL/min/kg.

# count of solved cases: 3
CCN(C(=O)C1CCCC1)c1cc(-c2ccc(CN3CCOCC3)cc2)cc(C(=O)NCc2c(C)cc(C)[nH]c2=O)c1C 62.7
CCN(C(=O)C1CC1)c1cc(-c2ccc(N3CCN(CC4CC4)CC3)nc2)cc(C(=O)NCc2c(C)cc(C)[nH]c2=O)c1C 60.3
CCN(C(=O)C1CC1)c1cc(-c2ccc(CN3CCOCC3)cc2)cc(C(=O)NCc2c(C)cc(C)[nH]c2=O)c1C 69.1

Parameters: items (list). Returns: clearance for each item.
1. CCN(C(=O)C1CC1)c1cc(-c2ccc(N3CCN(CC4CC4)CC3)nc2C)cc(C(=O)NCc2c(C)cc(C)[nH]c2=O)c1C
2. CCN1CCN(c2ccc(-c3cc(C(=O)NCc4c(C)cc(C)[nH]c4=O)c(C)c(N(CC)C(=O)C4CC4)c3)cc2)CC1

Resp:
[85.5, 69.9]

----------
# assay-details: Apparent volume of distribution in rat at 10 mg/kg, po
# Format: ADME, organism-based
# conditions: in vivo
property: log10 of Vz (log10 of the value in mL/kg)
# log10 transformed; quantity=Vz; unit=mL/kg

# count of solved cases: 5
CCN(C(=O)C1CC1)c1cc(-c2cnc(N3CCN(CC4CC4)CC3)c(C)c2)cc(C(=O)NCc2c(C)cc(C)[nH]c2=O)c1C 5.31
CCN(C(=O)C1CC1)c1cc(-c2ccc(CN3CCOCC3)cc2)cc(C(=O)NCc2c(C)cc(C)[nH]c2=O)c1C 5.32
CCN(C(=O)C1CC1)c1cc(-c2ccc(N3CCN(CC4CC4)CC3)nc2)cc(C(=O)NCc2c(C)cc(C)[nH]c2=O)c1C 4.93
CCN1CCN(c2ccc(-c3cc(C(=O)NCc4c(C)cc(C)[nH]c4=O)c(C)c(N(CC)C(=O)C4CC4)c3)cc2)CC1 5.67
CCN(C(=O)C1CCCC1)c1cc(-c2ccc(CN3CCOCC3)cc2)cc(C(=O)NCc2c(C)cc(C)[nH]c2=O)c1C 4.73

Field: next molecule
GET /value?item= `CCN(C(=O)C1CC1)c1cc(-c2ccc(N3CCN(CC4CC4)CC3)nc2C)cc(C(=O)NCc2c(C)cc(C)[nH]c2=O)c1C` &field=log10 of Vz returns 4.56
